Target: aryl hydrocarbon receptor (AHR) (Homo sapiens, UniProt P35869)
Sequence (P35869 11-848): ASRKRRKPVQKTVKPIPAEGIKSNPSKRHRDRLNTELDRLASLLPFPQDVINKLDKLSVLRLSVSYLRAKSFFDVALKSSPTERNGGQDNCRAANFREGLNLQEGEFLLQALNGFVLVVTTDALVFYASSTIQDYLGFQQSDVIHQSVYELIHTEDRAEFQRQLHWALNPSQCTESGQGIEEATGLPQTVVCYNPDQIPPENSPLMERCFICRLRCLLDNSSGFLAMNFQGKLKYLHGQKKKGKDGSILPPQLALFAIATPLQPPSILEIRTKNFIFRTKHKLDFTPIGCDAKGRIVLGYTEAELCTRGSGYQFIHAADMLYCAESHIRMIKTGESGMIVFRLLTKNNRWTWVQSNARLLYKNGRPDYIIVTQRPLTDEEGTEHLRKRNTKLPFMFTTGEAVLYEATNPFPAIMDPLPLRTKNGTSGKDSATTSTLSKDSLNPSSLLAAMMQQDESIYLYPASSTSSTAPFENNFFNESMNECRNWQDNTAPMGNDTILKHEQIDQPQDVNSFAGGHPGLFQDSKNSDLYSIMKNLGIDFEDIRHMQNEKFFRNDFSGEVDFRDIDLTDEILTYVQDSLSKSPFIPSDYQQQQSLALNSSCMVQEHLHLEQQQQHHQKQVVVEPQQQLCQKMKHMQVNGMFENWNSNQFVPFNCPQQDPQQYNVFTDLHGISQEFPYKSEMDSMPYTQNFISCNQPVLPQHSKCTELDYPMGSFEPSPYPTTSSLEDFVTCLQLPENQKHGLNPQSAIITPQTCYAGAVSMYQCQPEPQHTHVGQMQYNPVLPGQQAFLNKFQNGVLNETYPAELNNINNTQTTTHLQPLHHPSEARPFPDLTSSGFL
Assay: DRE-Luciferase reporter high-throughput screen (AHR antagonist, VAF347-activated)
pIC50: −log10 of the molar value.
Entries and their pIC50

Example entries and their recorded answers appear below.
compound="O=C(Nc1ccc2ccccc2n1)c1ccccc1Cl [compound 12]" recorded_result="6.00 to 6.30"
compound="Cn1c(SCc2ccc(-c3ccccc3)cc2)nnc1C(F)(F)F [compound 95]" recorded_result="6.00 to 6.30"
compound="CCOc1ccc(-n2nc3ccc(NC(=O)COc4ccccc4Cl)cc3n2)cc1 [73B]" recorded_result="6.00 to 6.30"
compound="Cc1cccc(-n2ccc(=O)c(C(=O)Nc3ccccc3F)n2)c1 [compound 31]" recorded_result="6.30 to 6.70"
compound="Cc1ccc2nc(-c3ccc(NC(=O)COC(=O)c4ccc(O)cc4O)cc3)sc2c1 [compound 138]" recorded_result="6.00 to 6.30"
compound="O=C(Nc1ccc2[nH]c(C(F)(F)F)nc2c1)c1cccn(Cc2ccccc2)c1=O [compound 49]" recorded_result="> 6.70"

Please look up its pIC50: CCN(C)C(=O)c1cnc(-c2noc3ccccc23)s1 [compound 65]
6.00 to 6.30

Here is the next compound: Cc1ccc(NC(=O)c2cc3c(=O)[nH]c(=O)n(C)c3nc2C)cc1Cl [28B]
6.30 to 6.70

Another compound: Cc1cnn(Cc2ncc(-c3ccccc3Br)o2)c1 [77B]
< 5.70

How about Cc1nc(-c2ccccc2F)sc1C(=O)NCc1ccccn1 [63A] ?
< 5.70
